- Test system: Aspergillus niger
- procedure-text: Antifungal activity against Aspergillus niger NCIM 504 assessed as zone of inhibition at 80 ug/well incubated for 48 to 72 hrs by agar well diffusion method
- Format: functional
- assay-context: read-out: IZ

smiles-str | readout-units | zone of inhibition at 80 µg/disc
Cc1nc(-c2ccc(Br)cc2)sc1-c1nn(-c2ccccc2)cc1-c1cn(Cc2ccc(Cl)cc2)nn1 | mm | 13.5
Cc1nc(-c2ccc(F)cc2)sc1-c1nn(-c2ccccc2)cc1-c1cn(Cc2ccccc2)nn1 | mm | 15.8
Cc1nc(-c2ccc(F)cc2)sc1-c1nn(-c2ccccc2)cc1-c1cn(Cc2ccc(Br)cc2)nn1 | mm | 16.8
Cc1ccc(Cn2cc(-c3cn(-c4ccccc4)nc3-c3sc(-c4ccccc4)nc3C)nn2)cc1 | mm | 14
Cc1nc(-c2ccccc2)sc1-c1nn(-c2ccccc2)cc1-c1cn(Cc2ccc(F)cc2)nn1 | mm | 16.4
Cc1ccc(-c2nc(C)c(-c3nn(-c4ccccc4)cc3-c3cn(Cc4ccc(Cl)cc4)nn3)s2)cc1 | mm | 16
Cc1nc(-c2ccccc2)sc1-c1nn(-c2ccccc2)cc1-c1cn(Cc2ccc(Cl)cc2)nn1 | mm | 13.6
Cc1nc(-c2ccc(Br)cc2)sc1-c1nn(-c2ccccc2)cc1-c1cn(Cc2ccc(F)cc2)nn1 | mm | 17
OC(Cn1cncn1)(Cn1cncn1)c1ccc(F)cc1F | mm | 18.4
Cc1ccc(-c2nc(C)c(-c3nn(-c4ccccc4)cc3-c3cn(Cc4ccc(Br)cc4)nn3)s2)cc1 | mm | 14.4
Cc1ccc(-c2nc(C)c(-c3nn(-c4ccccc4)cc3-c3cn(Cc4ccc(F)cc4)nn3)s2)cc1 | mm | 16.3
Cc1nc(-c2ccc(Cl)cc2)sc1-c1nn(-c2ccccc2)cc1-c1cn(Cc2ccc(Br)cc2)nn1 | mm | 12
Cc1nc(-c2ccc(Cl)cc2)sc1-c1nn(-c2ccccc2)cc1-c1cn(Cc2ccccc2)nn1 | mm | 12.3
Cc1nc(-c2ccc(Cl)cc2)sc1-c1nn(-c2ccccc2)cc1-c1cn(Cc2ccc(F)cc2)nn1 | mm | 12.5
Cc1ccc(Cn2cc(-c3cn(-c4ccccc4)nc3-c3sc(-c4ccc(Cl)cc4)nc3C)nn2)cc1 | mm | 11.4
Cc1ccc(Cn2cc(-c3cn(-c4ccccc4)nc3-c3sc(-c4ccc(F)cc4)nc3C)nn2)cc1 | mm | 13
Cc1nc(-c2ccc(F)cc2)sc1-c1nn(-c2ccccc2)cc1-c1cn(Cc2ccc(Cl)cc2)nn1 | mm | 13.5
Cc1nc(-c2ccc(F)cc2)sc1-c1nn(-c2ccccc2)cc1-c1cn(Cc2ccc(F)cc2)nn1 | mm | 11

---

- System: Aspergillus niger
- procedure-text: Antifungal activity against Aspergillus niger NCIM 504 assessed as inhibition of fungal growth incubated for 48 to 72 hrs by broth microdilution susceptibility method
- Format: functional
Recorded MIC for the following molecules
measurement-label: MIC (µg/mL)

smiles-str | readout-units | numeric-value
Cc1ccc(-c2nc(C)c(-c3nn(-c4ccccc4)cc3-c3cn(Cc4ccccc4)nn3)s2)cc1 | µg/mL | 62.5
Cc1ccc(Cn2cc(-c3cn(-c4ccccc4)nc3-c3sc(-c4ccccc4)nc3C)nn2)cc1 | µg/mL | 31.2
Cc1nc(-c2ccc(Cl)cc2)sc1-c1nn(-c2ccccc2)cc1-c1cn(Cc2ccc(Br)cc2)nn1 | µg/mL | 62.5
Cc1ccc(-c2nc(C)c(-c3nn(-c4ccccc4)cc3-c3cn(Cc4ccc(Br)cc4)nn3)s2)cc1 | µg/mL | 31.2
Cc1ccc(Cn2cc(-c3cn(-c4ccccc4)nc3-c3sc(-c4ccc(F)cc4)nc3C)nn2)cc1 | µg/mL | 31.2
Cc1nc(-c2ccc(F)cc2)sc1-c1nn(-c2ccccc2)cc1-c1cn(Cc2ccc(F)cc2)nn1 | µg/mL | 31.2
Cc1ccc(-c2nc(C)c(-c3nn(-c4ccccc4)cc3-c3cn(Cc4ccc(F)cc4)nn3)s2)cc1 | µg/mL | 62.5
Cc1nc(-c2ccccc2)sc1-c1nn(-c2ccccc2)cc1-c1cn(Cc2ccc(Cl)cc2)nn1 | µg/mL | 31.2
